assay: The activity in the LAF assay is best expressed as a ratio of the rapamycin IC50 (1-9 nM) /analogue IC50 (R/A); type: functional
quantity-name: Ratio

compound	meas-value
CO[C@H]1C[C@@H]2CC[C@@H](C)[C@@](O)(O2)C(=O)C(=O)N2CCCC[C@H]2C(=O)O[C@H]([C@H](C)C[C@H]2CC[C@H](O)[C@@H](OC)C2)CC(O)[C@H](C)/C=C(\C)[C@@H](O)[C@@H](OC)C(=O)[C@H](C)C[C@H](C)/C=C/C=C/C=C/1C (stereo not given in full)	1.3
CCC12CCCCN1C(=O)C(=O)[C@]1(O)O[C@@H](CC[C@H]1C)C[C@H](OC)/C(C)=C/C=C/C=C/[C@@H](C)C[C@@H](C)C(=O)[C@H](OC)[C@H](O)/C(C)=C/[C@@H](C)C(=O)C[C@@H]([C@H](C)C[C@H]1CC[C@H](O)[C@H](OC)C1)OC2=O (stereo not given in full)	0.07
CO[C@H]1C[C@@H]2CC[C@@H](C)[C@@](O)(O2)C(=O)C(=O)N2CCCC[C@H]2C(=O)O[C@H](C[C@H](O)[C@H](C)C[C@@H]2CC[C@@H](O)[C@H](OC)C2)[C@H](C)/C=C(\C)[C@@H](O)[C@@H](OC)C(=O)[C@H](C)C[C@H](C)/C=C/C=C/C=C/1C	0.42
CO[C@H]1C[C@@H]2CC[C@@H](C)[C@@](O)(O2)C(=O)C(=O)N2CCCCC2(C)C(=O)O[C@H]([C@H](C)C[C@H]2CC[C@H](O)[C@@H](OC)C2)CC(O)[C@H](C)/C=C(\C)[C@@H](O)[C@@H](OC)C(=O)[C@H](C)C[C@H](C)/C=C/C=C/C=C/1C (stereo not given in full)	0.23
CO[C@H]1C[C@@H]2CC[C@@H](C)[C@@](O)(O2)C(=O)C(=O)N2CCCCC2(C)C(=O)O[C@H]([C@H](C)C[C@H]2CC[C@H](O)[C@@H](OC)C2)CC(=O)[C@H](C)/C=C(\C)[C@@H](O)[C@@H](OC)C(=O)[C@H](C)C[C@H](C)/C=C/C=C/C=C/1C (stereo not given in full)	0.42
